molecular target: cyclin E/CDK2 enzyme (Homo sapiens, UniProt P24941); construct: made in house; host or cells: Sf9 insect cells, recombinant baculovirus; assay: CDK2 ELISA kinase assay (phospho-Rb ser 795 detection); format: biochemical; details: In Vitro Enzyme Assay, cyclin E/CDK2, read-out: CDK2 IC50
Parameter: IC50 (µM)

In [3]: df
Out[3]:
                    structure_smiles_string  unit_label  recorded_number
0  O=C1NC(=O)c2ccc(-c3ccc(C(F)(F)F)cc3)cc2C1=CNCc1ccc(O)c(O)c1          µM             10.7
1  O=C1NC(=O)c2ccc(-c3ccc(C(=O)O)cc3)cc2C1=CNCc1ccc(O)c(O)c1          µM             13.8
2  O=C1NC(=O)c2ccc(-c3ccc(F)cc3)cc2C1=CNCc1ccc(O)c(O)c1          µM                9

A: O=C1NC(=O)c2ccc(C=CCn3ccnc3)cc2C1=CNCc1ccc(O)c(O)c1
B: O=C1NC(=O)c2ccccc2/C1=C/NCc1ccc(O)c(O)c1
In terms of reported IC50, does A or B have the smaller number? Choose, then provide that item's label.
A

====

Overview of recorded pIC50 for various molecules
tested on: MCF-7; test: Cytotoxicity assay (SRB), MCF-7; assay type: cell-based; conditions: Homo sapiens, MCF7, 72 h, MCF-7 cells, SRB, three days; read-out: In Vitro Cellular Activity IC50 MCF-7
API: returns pIC50 as number; meaning -log10 of concentration in mol/L.

In [3]: df
Out[3]:
                                   molecule  system_name  recorded_number
0        O=C1NC(=O)c2ccc(Br)cc2/C1=C/NCCCCO        MCF-7             4.62
1  Cc1cc(N/C=C2\C(=O)NC(=O)c3ccc(-c4ccsc4)cc32)cnc1N1C[C@@H](C)N[C@@H](C)C1        MCF-7             5.57
2  COc1ccc(CN(C)/C=C2\C(=O)NC(=O)c3ccc(Br)cc32)cc1O        MCF-7             4.42
3  CC(O)C1CCCN1Cc1ccc(N/C=C2\C(=O)NC(=O)c3ccc(I)cc32)cc1 (single isomer, unassigned)        MCF-7             6.00
4  O=C1NC(=O)c2ccc(-c3ccsc3)cc2/C1=C/Nc1cc(F)c(N2CCN3CCC[C@H]3C2)c(F)c1        MCF-7             5.39

Lab request: please report pIC50 under test system MCF-7 for `CCC(=O)Nc1ccc(CN/C=C2\C(=O)NC(=O)c3ccc(I)cc32)cc1O`
5.60

Another: `CCCOc1ccc(CN/C=C2\C(=O)NC(=O)c3ccc(Br)cc32)cc1O`
5.40

====

target: cyclin D1/cdk 4 enzyme (Homo sapiens, UniProt P11802); construct: made in house; host or cells: Sf9 insect cells, recombinant baculovirus; test: CDK4 ELISA kinase assay (phospho-Rb ser 795 detection); assay type: biochemical; conditions: In Vitro Enzyme Assay, cyclin D1/cdk 4, read-out: CDK4 IC50
Sequence (P11802 whole entry, species assumed): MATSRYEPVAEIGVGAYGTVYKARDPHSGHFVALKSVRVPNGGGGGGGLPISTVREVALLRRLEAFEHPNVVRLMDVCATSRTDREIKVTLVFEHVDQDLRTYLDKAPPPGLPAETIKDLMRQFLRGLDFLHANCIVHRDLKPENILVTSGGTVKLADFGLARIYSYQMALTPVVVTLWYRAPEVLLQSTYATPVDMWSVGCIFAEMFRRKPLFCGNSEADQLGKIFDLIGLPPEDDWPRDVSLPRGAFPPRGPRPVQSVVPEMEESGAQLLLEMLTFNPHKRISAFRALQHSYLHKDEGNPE
Sequence (P24385 whole entry partner, species assumed): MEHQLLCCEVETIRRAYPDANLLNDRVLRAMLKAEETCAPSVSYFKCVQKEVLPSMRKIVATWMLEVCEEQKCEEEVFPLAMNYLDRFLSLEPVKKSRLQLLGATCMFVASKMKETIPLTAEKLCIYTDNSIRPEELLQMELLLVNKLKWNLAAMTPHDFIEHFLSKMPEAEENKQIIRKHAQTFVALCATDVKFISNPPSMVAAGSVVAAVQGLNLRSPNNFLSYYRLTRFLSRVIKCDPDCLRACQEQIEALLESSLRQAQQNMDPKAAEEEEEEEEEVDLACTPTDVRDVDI
Parameter: IC50 (µM)

Would you please look over these solved cases?
                                   compound                               system_name  parameter  recorded_number
0  CN1CCN(c2ccc(NC=C3C(=O)NC(=O)c4ccc(-c5ccc6c(ccn6CC(N)=O)c5)cc43)cc2)CC1 [Example 851]  cyclin D1/cdk 4 enzyme (Homo sapiens, UniProt P11802)       IC50             0.79
1  CC1CCCN1Cc1ccc(NC=C2C(=O)NC(=O)c3ccccc32)cc1 (stereo not drawn) [Example 617]  cyclin D1/cdk 4 enzyme (Homo sapiens, UniProt P11802)       IC50             16.5
2  N#Cc1cccc(-c2ccc3c(c2)C(=CNCc2ccc(O)c(O)c2)C(=O)NC3=O)c1 [Example 785]  cyclin D1/cdk 4 enzyme (Homo sapiens, UniProt P11802)       IC50              1.2
3  O=C1NC(=O)c2ccccc2C1=CNCc1cccc(NC(=O)C2CC2)c1 [Example 586]  cyclin D1/cdk 4 enzyme (Homo sapiens, UniProt P11802)       IC50             31.3
4  O=C1NC(=O)c2ccc(I)cc2/C1=C/Nc1ccc(C2CCCN2CCO)cc1 (stereo not drawn) [Example 464]  cyclin D1/cdk 4 enzyme (Homo sapiens, UniProt P11802)       IC50             0.14

P: O=C1NC(=O)c2ccc(I)cc2/C1=C/NCc1cc(O)c(-c2ccccc2)cn1 [Example 524]
Q: CN1CCN(c2ccc(NC=C3C(=O)NC(=O)c4ccc(-c5ccc(CO)cc5)cc43)cc2)CC1 [Example 808]
R: COC[C@@H]1CCCN1Cc1ccc(N/C=C2\C(=O)NC(=O)c3ccc(I)cc32)nc1 [Example 478]
Write the entries in order, lowest recorded IC50 first. Reply format: the labels, ordered as requested.
P, Q, R
